Assay: Inhibition of PDE4D7 S129D mutant (unknown origin) preincubated for 5 to 10 mins followed by substrate addition and measured for 10 mins by coupled enzyme based fluorescence analysis
Set-up: species or system Homo sapiens
quantity: IC50 (nM)

Some solved cases for reference:
INSERT INTO measurements (structure, units_label, observed_result) VALUES
  ('COc1ccc(Cc2cn[nH]c2)nc1-c1cccc(OC(F)(F)F)c1', 'nM', 46),
  ('COc1cccc(-c2nc(Cn3ncnn3)ccc2OC(F)F)c1', 'nM', 17),
  ('FC(F)Oc1ccc(Cc2ccncc2)nc1-c1cccc(OCc2ccccc2)c1', 'nM', 171),
  ('COc1cccc(-c2nc(Cc3cn[nH]c3)ccc2OC)c1', 'nM', 13);

P = COc1ccc(Nc2cn[nH]c2)nc1-c1cccc(OC(F)F)c1
Q = COc1ccc(Cn2ncnn2)nc1-c1cccc(OC(F)F)c1
Task: Record comparison, field IC50: mark the lower of P and Q . Lab note: record the label of whichever item you select.
Output: Q
(Q: 21 nM, P: 188 nM)
